activity change values for the molecules below.
Assay: qHTS for Inhibitors of Inflammasome Signaling: IL-1-beta AlphaLISA Primary Screen; also: % is scaled to controls: 0 for no effect and ±100 for the full control effect
Conditions: THP-1 LPS/ATP IL-1B secretion, 16 h; at 57.5 µM, hits give low values
The whole screen tested about 360,000 compounds, of which about 17,000 (4.7%) were called active. Inconclusive results (about 5%) are left out. The sample holds actives, similar compounds and a random draw of the others, so the mix is not that of the screen.

MOLECULE: CC(C)NC(=O)/C(C#N)=C\c1ccc(N(C)C)c(Br)c1
activity change [%]: -7.21

MOLECULE: COc1ccc2cc1Oc1ccc(cc1)C[C@H]1c3cc(c(OC)cc3CCN1C)Oc1c(O)c(OC)cc3c1[C@H](C2)N(C)CC3
activity change [%]: -107

MOLECULE: C[C@@H]1CN([C@@H](C)CO)C(=O)CCCn2nncc2CO[C@@H]1CN(C)S(=O)(=O)c1ccc(-c2ccccc2)cc1
activity change [%]: -3.91

MOLECULE: Cc1[nH]c2ccccc2c1/C=C(/C#N)C(=O)NC(C)C
activity change [%]: -99.8

MOLECULE: CCCNC(=O)c1cc(C2CCCCN2S(=O)(=O)c2ccc(C#N)cc2)on1 (stereo not given)
activity change [%]: -18.6
